tested on: C. xeroses; assay type: cell-based, Corynebacterium xerosis
recordedMetric: Minimum Inhibitory Concentration (activity) (µg/mL)
# unit: µg/mL | format: bare number

CC(C)C[C@@H]1NC(=O)[C@H](CCCCN)NC(=O)[C@H](C(C)C)NC(=O)[C@H](CCCCN)NC(=O)[C@@H]2CCCN2C(=O)[C@@H](Cc2ccc(O)cc2)NC(=O)[C@H](CCCCN)NC(=O)[C@H](CC(C)C)NC(=O)[C@H](CCCCN)NC(=O)[C@@H](C(C)C)NC(=O)[C@H](CCCCN)NC(=O)[C@@H]2CCCN2C(=O)[C@@H](Cc2ccc(O)cc2)NC(=O)[C@H](CCCCN)NC1=O [GS14invV2]	6.2
CC(C)C[C@@H]1NC(=O)[C@H](CCCCN)NC(=O)[C@H](CC(C)C)NC(=O)[C@@H]2CCCN2C(=O)[C@@H](Cc2ccccc2)NC(=O)[C@H](CC(C)C)NC(=O)[C@@H](CCCCN)NC(=O)[C@H](CC(C)C)NC(=O)[C@H](CCCCN)NC(=O)[C@H](CC(C)C)NC(=O)[C@@H]2CCCN2C(=O)[C@@H](Cc2ccccc2)NC(=O)[C@H](CC(C)C)NC(=O)[C@H](CCCCN)NC1=O [Y2/F2 V3/L3]	1
CC(C)C[C@@H]1NC(=O)[C@H](CCCCN)NC(=O)[C@@H](C(C)C)NC(=O)[C@@H]2CCCN2C(=O)[C@@H](Cc2ccc(O)cc2)NC(=O)[C@H](CC(C)C)NC(=O)[C@H](CCCCN)NC(=O)[C@H](C(C)C)NC(=O)[C@H](CCCCN)NC(=O)[C@H](CC(C)C)NC(=O)[C@@H]2CCCN2C(=O)[C@@H](Cc2ccc(O)cc2)NC(=O)[C@H](C(C)C)NC(=O)[C@H](CCCCN)NC1=O [GS14V1]	1.5
CC(C)C[C@@H]1NC(=O)[C@H](CCCCN)NC(=O)[C@H](C(C)C)NC(=O)[C@H]2CCCN2C(=O)[C@@H](Cc2ccc(O)cc2)NC(=O)[C@H](CC(C)C)NC(=O)[C@H](CCCCN)NC(=O)[C@H](C(C)C)NC(=O)[C@H](CCCCN)NC(=O)[C@H](CC(C)C)NC(=O)[C@@H]2CCCN2C(=O)[C@@H](Cc2ccc(O)cc2)NC(=O)[C@H](C(C)C)NC(=O)[C@H](CCCCN)NC1=O [GS14P14]	1

# input for lookup
Entry CC(C)C[C@@H]1NC(=O)[C@H](CCCCN)NC(=O)[C@H](C(C)C)NC(=O)[C@@H]2CCCN2C(=O)[C@@H](Cc2ccc(O)cc2)NC(=O)[C@H](CC(C)C)NC(=O)[C@H](CCCCN)NC(=O)[C@H](C(C)C)NC(=O)[C@H](CCCCN)NC(=O)[C@@H](CC(C)C)NC(=O)[C@@H]2CCCN2C(=O)[C@@H](Cc2ccc(O)cc2)NC(=O)[C@H](C(C)C)NC(=O)[C@H](CCCCN)NC1=O [GS14L8] , tested on C. xeroses, has a reported Minimum Inhibitory Concentration (activity) of 0.8

---

test system: E. coli DC2; format: cell-based, Escherichia coli; conditions: E. coli DC2; unit from Table 10
Where a SMILES comes first, the peptide text is derived from it. [ ]: non-standard residue; d: D form. Orn = NCCC[C@H](N)C(=O)O
Measured Antibiotic activity (Table 11, ring analogs) accompanies every entry in the list below.
Please give the number followed by its unit.

For orientation, consider the following solved cases.
CC(C)C[C@@H]1NC(=O)[C@H](CCCCN)NC(=O)[C@H](C(C)C)NC(=O)[C@@H]2CCCN2C(=O)[C@@H](Cc2ccccc2)NC(=O)[C@H](CC(C)C)NC(=O)[C@H](CCCCN)NC(=O)[C@H](C(C)C)NC(=O)[C@H](CCCCN)NC(=O)[C@@H]2CCCN2C(=O)[C@@H](Cc2ccccc2)NC(=O)[C@H](CCCCN)NC1=O [GS12F]	9 μg/ml
CC(C)C[C@@H]1NC(=O)[C@H](CCCN)NC(=O)[C@H](C(C)C)NC(=O)[C@@H]2CCCN2C(=O)[C@@H](Cc2ccccc2)NC(=O)[C@H](CC(C)C)NC(=O)[C@H](CCCN)NC(=O)[C@H](C(C)C)NC(=O)[C@@H]2CCCN2C(=O)[C@@H](Cc2ccccc2)NC1=O [GS, cyclo(Val-Orn-Leu-D-Phe-Pro)2, reference compound] (cyclo(V[Orn]L[dF]PV[Orn]L[dF]P))	9 μg/ml

Recorded result, `CC(C)C[C@@H]1NC(=O)[C@H](CCCCN)NC(=O)[C@H](C(C)C)NC(=O)[C@@H]2CCCN2C(=O)[C@@H](Cc2ccc(O)cc2)NC(=O)[C@H](CC(C)C)NC(=O)[C@H](CCCCN)NC(=O)[C@H](C(C)C)NC(=O)[C@H](CCCCN)NC(=O)[C@H](CC(C)C)NC(=O)[C@@H]2CCCN2C(=O)[C@@H](Cc2ccc(O)cc2)NC(=O)[C@H](C(C)C)NC(=O)[C@H](CCCCN)NC1=O` , Antibiotic activity (Table 11, ring analogs): 190 μg/ml
